Data provenance is ChEMBL document CHEMBL5614423.

assay: Half life in CD-1 mouse at 100 mg/kg by MS analysis; format: ADME, organism-based; conditions: in vivo

record.smiles	half-life [h]
CNc1nc(N)ncc1-c1cn([C@@H]2O[C@H](CO)[C@@H](O)[C@@]2(C)F)cn1	1
